Data provenance: patent US20250115600A1

target: AKT1 WT (Homo sapiens (Human), UniProt P31749); assay: Live cell target engagement (NanoBRET) in HEK293 cells; format: cell-based; details: HEK293, 2 hours at 37° C.
Sequence (P31749 whole entry): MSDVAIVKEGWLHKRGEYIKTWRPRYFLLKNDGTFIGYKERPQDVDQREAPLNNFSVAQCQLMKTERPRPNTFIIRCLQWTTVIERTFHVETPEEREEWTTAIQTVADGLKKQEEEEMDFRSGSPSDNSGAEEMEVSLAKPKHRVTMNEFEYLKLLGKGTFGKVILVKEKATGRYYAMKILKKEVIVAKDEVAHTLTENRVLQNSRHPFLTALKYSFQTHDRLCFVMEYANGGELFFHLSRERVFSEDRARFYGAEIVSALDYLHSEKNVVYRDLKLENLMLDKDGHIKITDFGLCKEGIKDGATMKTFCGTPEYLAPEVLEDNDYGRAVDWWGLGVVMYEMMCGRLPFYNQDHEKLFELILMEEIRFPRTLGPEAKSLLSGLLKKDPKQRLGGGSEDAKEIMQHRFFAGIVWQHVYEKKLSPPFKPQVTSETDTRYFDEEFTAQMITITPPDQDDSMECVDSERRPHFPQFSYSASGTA
Reported IC50 is given for each of the following compounds.

compound	target-under-test	IC50
Nc1ncccc1-c1nc2ccc(-c3ccccc3)nc2n1-c1ccc(CNC(=O)Cc2ccc(C=O)c(O)c2C(F)(F)F)cc1	AKT1 WT (Homo sapiens (Human), UniProt P31749)	< 0.1 µM
Nc1ncccc1-c1nc2cccnc2n1-c1ccc(CNC(=O)C(F)(F)c2ccc(C=O)c(O)c2)cc1	AKT1 WT (Homo sapiens (Human), UniProt P31749)	0.1 to 0.5 µM
Nc1ncccc1-c1nc2ccc(-c3ccccc3)nc2n1-c1ccc(CNCCc2ccc(C=O)c(O)c2Cl)cc1	AKT1 WT (Homo sapiens (Human), UniProt P31749)	< 0.1 µM
CC(NC(=O)Cc1ccc(O)c(C=O)c1)c1ccc(-n2c(-c3cccnc3N)nc3ccc(-c4ccccc4)nc32)cc1 (centres unmarked)	AKT1 WT (Homo sapiens (Human), UniProt P31749)	0.1 to 0.5 µM
CC(C(=O)NCc1ccc(-n2c(-c3cccnc3N)nc3ccc(-c4ccccc4)nc32)cc1)c1ccc(C=O)c(O)c1 (centres unmarked)	AKT1 WT (Homo sapiens (Human), UniProt P31749)	< 0.1 µM
Nc1ncccc1-c1nc2cccnc2n1-c1ccc(CNC(=O)c2cc(C=O)c(O)cn2)cc1	AKT1 WT (Homo sapiens (Human), UniProt P31749)	> 0.5 µM
Nc1ncccc1-c1nc2ccc(-c3ccccc3)nc2n1-c1ccc(CCNC(=O)c2ccc(C=O)c(O)c2)cc1	AKT1 WT (Homo sapiens (Human), UniProt P31749)	< 0.1 µM
CN(C(=O)CCc1ccc(C=O)c(O)c1)c1ccc(-n2c(-c3cccnc3N)nc3ccc(-c4ccccc4)nc32)cc1	AKT1 WT (Homo sapiens (Human), UniProt P31749)	0.1 to 0.5 µM
Nc1ncccc1-c1nc2ccc(-c3ccccn3)nc2n1-c1ccc(CNC(=O)Cc2ccc(C=O)c(O)c2)cc1	AKT1 WT (Homo sapiens (Human), UniProt P31749)	< 0.1 µM
Nc1ncccc1-c1nc2cccnc2n1-c1ccc(CNC(=O)C2(c3ccc(C=O)c(O)c3)CC2)cc1	AKT1 WT (Homo sapiens (Human), UniProt P31749)	> 0.5 µM
Nc1ncccc1-c1nc2ccc(-c3ccncc3)nc2n1-c1ccc(CNC(=O)Cc2ccc(C=O)c(O)c2)cc1	AKT1 WT (Homo sapiens (Human), UniProt P31749)	< 0.1 µM
Nc1ncccc1-c1nc2ccc(-c3ccccc3)nc2n1-c1ccc(C(=O)NCc2ccc(O)c(C=O)c2)cc1	AKT1 WT (Homo sapiens (Human), UniProt P31749)	< 0.1 µM
Nc1ncccc1-c1nc2ccc(-c3ccccc3)nc2n1-c1ccc(C(CO)NC(=O)Cc2ccc(C=O)c(O)c2F)cc1 (centres unmarked)	AKT1 WT (Homo sapiens (Human), UniProt P31749)	0.1 to 0.5 µM
CN(C)C(=O)Nc1cc(CC(=O)NCc2ccc(-n3c(-c4cccnc4N)nc4cccnc43)cc2)ccc1C=O	AKT1 WT (Homo sapiens (Human), UniProt P31749)	0.1 to 0.5 µM

----------
Target: AKT1 WT (Homo sapiens (Human), UniProt P31749)
Assay: Dissociation rate by intact protein LCMS after ARQ092 chase
Format: binding
Details: compound 1.5 μM, 2 hours at 37° C., then ARQ092 50 μM
Experimental: AKT1 WT or AKT1 E17K (1 μM) were treated with a compound of Table 1 (1.5 μM) for 2 hours at 37° C., then ARQ092 (50 μM final concentration) was added to prevent aldehyde-containing compound rebinding after initial dissociation. At various timepoints, aliquots were removed and quenched with 5 mM NaBH4 for 5 min to capture the reversible imine through reductive amination. Reduction reactions were quenched by diluting the sample in equal volume acetonitrile+1% TFA, then analyzed by LCMS. […]
Sequence (P31749 2-480): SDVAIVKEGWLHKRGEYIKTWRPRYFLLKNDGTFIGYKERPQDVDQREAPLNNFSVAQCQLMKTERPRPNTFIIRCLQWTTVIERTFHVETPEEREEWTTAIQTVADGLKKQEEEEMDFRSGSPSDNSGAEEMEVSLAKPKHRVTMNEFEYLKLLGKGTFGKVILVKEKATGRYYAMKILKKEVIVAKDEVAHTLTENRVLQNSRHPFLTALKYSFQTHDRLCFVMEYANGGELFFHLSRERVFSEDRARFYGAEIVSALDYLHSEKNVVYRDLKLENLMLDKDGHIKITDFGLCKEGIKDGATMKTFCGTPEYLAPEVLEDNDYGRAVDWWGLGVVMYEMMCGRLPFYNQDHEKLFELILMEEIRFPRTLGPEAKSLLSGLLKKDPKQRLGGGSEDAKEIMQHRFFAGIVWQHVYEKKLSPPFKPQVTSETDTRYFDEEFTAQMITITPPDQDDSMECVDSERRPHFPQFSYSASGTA
Reported AKT1 (WT) t1/2 is given for each of the following molecules.

molecule	AKT1 (WT) t1/2, min
CC(=O)Nc1cc(CCNCc2ccc(-n3c(-c4cccnc4N)nc4ccc(-c5ccccc5)nc43)cc2)ccc1C=O	4.9
Nc1ncccc1-c1nc2cccnc2n1-c1ccc(CNC(=O)Cc2ccc(C=O)c(O)c2)cc1	10.7
Nc1ncccc1-c1nc2cccnc2n1-c1ccc(CNC(=O)C(F)c2ccc(C=O)c(O)c2)cc1 (stereo not shown)	12
Nc1ncccc1-c1nc2ccc(-c3ccccc3)nc2n1-c1ccc(CNCCc2ccc(C=O)c(O)c2)cc1	22.7
Cc1ccc2nc(-c3cccnc3N)n(-c3ccc(C4(NC(=O)Cc5ccc(C=O)c(O)c5F)CC4)cc3)c2n1	47.8
Nc1ncccc1-c1nc2ccc(-c3ccccc3)nc2n1-c1ccc(CNCCc2ccc(C=O)cc2)cc1	45.3
Nc1ncccc1-c1nc2ccc(-c3cccc(N4CCOCC4)c3)nc2n1-c1ccc(CNC(=O)Cc2ccc(C=O)c(O)c2F)cc1	45.3
